The reported numbers originate from ChEMBL document CHEMBL1955736.

# System: HepG2
# assay summary: Cytotoxicity against human HepG2 cells after 72 hrs by MTT assay
# Format: functional, cell-based
# study conditions: HepG2, 72 h
measured parameter: IC50 (µM)

compound	test target	measurement qualifier	data value
CCCCCCCCCCCCCCO[C@H]1O[C@H](CO)[C@H](O)[C@H](O)[C@H]1O	HepG2	=	68.1
CCCCCCCCCCCO[C@H]1O[C@H](CO)[C@H](O)[C@H](O)[C@H]1O	HepG2	=	151
CCCCCCCCCCCCCO[C@@H]1O[C@H](CO)[C@H](O)[C@H](O)[C@H]1O	HepG2	=	142
CCCCCCCCCCO[C@@H]1O[C@H](CO)[C@H](O)[C@H](O)[C@H]1O	HepG2	>	240
CCCCCCCCCCCO[C@@H]1O[C@H](CO)[C@H](O)[C@H](O)[C@H]1O	HepG2	=	200
CCCCCCCCCCCCO[C@H]1O[C@H](CO)[C@H](O)[C@H](O)[C@H]1O	HepG2	=	138
CCCCCCCCCCCCCCCCO[C@@H]1O[C@H](CO)[C@H](O)[C@H](O)[C@H]1O	HepG2	>	240
CCCCCCCCCCCCCO[C@H]1O[C@H](CO)[C@H](O)[C@H](O)[C@H]1O	HepG2	=	89.9
CCCCCCCCCCCCCOC1O[C@H](CO)[C@H](O)[C@H](O)[C@H]1O (mixture of isomers)	HepG2	=	54.3
